measured target: RNA demethylase ALKBH5 (Homo sapiens, UniProt Q6P6C2, Y139A)
Sequence (Q6P6C2 2-394 Y139A limits assumed): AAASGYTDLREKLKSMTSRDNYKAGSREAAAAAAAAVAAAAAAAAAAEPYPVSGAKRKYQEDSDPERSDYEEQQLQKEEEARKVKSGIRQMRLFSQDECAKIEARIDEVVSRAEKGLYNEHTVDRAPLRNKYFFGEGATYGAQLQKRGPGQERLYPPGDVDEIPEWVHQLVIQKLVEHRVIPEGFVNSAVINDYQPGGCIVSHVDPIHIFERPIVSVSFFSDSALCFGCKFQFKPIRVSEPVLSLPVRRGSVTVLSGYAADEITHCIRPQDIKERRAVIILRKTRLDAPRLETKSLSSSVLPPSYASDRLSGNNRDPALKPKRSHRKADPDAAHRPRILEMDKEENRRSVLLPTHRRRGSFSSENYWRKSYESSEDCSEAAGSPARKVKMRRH
protocol: Binding affinity to NT-647-NHS fluorescent dye-labeled ALKBH5 Y139A mutant (unknown origin) expressed in Escherichia coli BL21(DE3) using m6A-ssDNA as substrate assessed as dissociation constant incubated for 15 mins by MST assay
quantity measured: Kd (µM)
Form entry: value (µM) — number only.

Result for O=C(OCc1ccc(C(F)(F)F)cc1)c1ccc(-c2cc3ncc(C(=O)c4c(O)ccc([N+](=O)[O-])c4O)cn3n2)cc1 , tested on RNA demethylase ALKBH5 (Homo sapiens, UniProt Q6P6C2, Y139A), Kd: 290

###

protocol: Apparent oral clearance in Sprague-Dawley rat at 2 mg/kg, iv measured for 1 to 1440 mins by LC-MS/MS analysis
Type: ADME, organism-based
condition description: in vivo, time 1-1440 min
quantity measured: CL/F

The reported CL/F of the compound O=C(OCc1ccc(C(F)(F)F)cc1)c1ccc(-c2cc3ncc(C(=O)c4c(O)ccc([N+](=O)[O-])c4O)cn3n2)cc1 was 5 mL/min/kg

###

protocol: Metabolic stability in rat plasma assessed as half life measured upto 240 mins by LC-MS/MS analysis
Format: ADME, cell-free
quantity measured: half-life (h)
Form entry: value (h) — number only.

The reported half-life of the compound O=C(OCc1ccc(C(F)(F)F)cc1)c1ccc(-c2cc3ncc(C(=O)c4c(O)ccc([N+](=O)[O-])c4O)cn3n2)cc1 was 4.18

###

protocol: Metabolic stability in human liver microsomes assessed as clearance measured upto 240 mins by LC-MS/MS analysis
Format: ADME, Microsome
condition description: read-out: CLH
quantity measured: microsomal CLint (µL/min/mg)
Form entry: value (µL/min/mg) — number only.

The reported microsomal CLint of the compound O=C(OCc1ccc(C(F)(F)F)cc1)c1ccc(-c2cc3ncc(C(=O)c4c(O)ccc([N+](=O)[O-])c4O)cn3n2)cc1 was 3.2

###

protocol: AUC (0 to infinity) in Sprague-Dawley rat at 10 mg/kg, po measured for 1 to 1440 mins by LC-MS/MS analysis
Assay type: ADME, organism-based
condition description: in vivo
quantity measured: AUC(0-inf) (ng·h/mL)
Form entry: value (ng·h/mL) — number only.

The reported AUC(0-inf) of the molecule O=C(OCc1ccc(C(F)(F)F)cc1)c1ccc(-c2cc3ncc(C(=O)c4c(O)ccc([N+](=O)[O-])c4O)cn3n2)cc1 was 5820

###

protocol: Metabolic stability in rat liver microsomes assessed as half life measured upto 240 mins by LC-MS/MS analysis
Type: ADME, Microsome
quantity measured: half-life

The reported half-life of the molecule O=C(OCc1ccc(C(F)(F)F)cc1)c1ccc(-c2cc3ncc(C(=O)c4c(O)ccc([N+](=O)[O-])c4O)cn3n2)cc1 was 13.8 min

###

protocol: Half life in Sprague-Dawley rat at 10 mg/kg, po measured for 1 to 1440 mins by LC-MS/MS analysis
Type: ADME, organism-based
condition description: in vivo, time 1-1440 min
quantity measured: half-life (h)
Form entry: value (h) — number only.

The reported half-life of the molecule O=C(OCc1ccc(C(F)(F)F)cc1)c1ccc(-c2cc3ncc(C(=O)c4c(O)ccc([N+](=O)[O-])c4O)cn3n2)cc1 was 2.47

###

measured target: RNA demethylase ALKBH5 (Homo sapiens, UniProt Q6P6C2)
Sequence (Q6P6C2 whole entry, the tested form may be a part): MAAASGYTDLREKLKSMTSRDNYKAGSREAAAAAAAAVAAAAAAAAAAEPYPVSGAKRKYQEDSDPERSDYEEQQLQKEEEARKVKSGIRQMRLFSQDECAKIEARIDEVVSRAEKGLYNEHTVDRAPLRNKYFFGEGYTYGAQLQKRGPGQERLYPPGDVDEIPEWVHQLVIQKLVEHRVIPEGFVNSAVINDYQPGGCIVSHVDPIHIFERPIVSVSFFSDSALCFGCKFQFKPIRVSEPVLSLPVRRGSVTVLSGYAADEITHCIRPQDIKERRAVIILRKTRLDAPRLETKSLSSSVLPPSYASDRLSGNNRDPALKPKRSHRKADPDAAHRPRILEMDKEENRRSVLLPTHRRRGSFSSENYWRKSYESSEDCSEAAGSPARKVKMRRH
protocol: Inhibition of ALKBH5 (66 to 292 residues)(unknown origin) expressed in Escherichia coli BL21(DE3) using 5'-ATTGTCA(m6A)CAGCAGA-FAM-3' as substrate incubated for 30 mins in presence of 0.2 uM of 2-OG by FP based competitive binding assay
Property: pIC50; scope: individual molecules
Keep it numeric: pIC50 is minus log10 of the concentration in mol/L.

The reported pIC50 of the molecule O=C(OCc1ccc(C(F)(F)F)cc1)c1ccc(-c2cc3ncc(C(=O)c4c(O)ccc([N+](=O)[O-])c4O)cn3n2)cc1 was 5.31

The reported pIC50 of the molecule O=C(O)c1ccnc(C(=O)NS(=O)(=O)c2ccccc2)c1 was 4.06

###

protocol: MRT in Sprague-Dawley rat at 2 mg/kg, iv measured for 1 to 1440 mins by LC-MS/MS analysis
Assay type: ADME, organism-based
condition description: in vivo, time 1-1440 min
quantity measured: MRT (h)
Form entry: value (h) — number only.

The reported MRT of the compound O=C(OCc1ccc(C(F)(F)F)cc1)c1ccc(-c2cc3ncc(C(=O)c4c(O)ccc([N+](=O)[O-])c4O)cn3n2)cc1 was 1.3

###

measured target: RNA demethylase ALKBH5 (Homo sapiens, UniProt Q6P6C2, K132A)
protocol: Binding affinity to NT-647-NHS fluorescent dye-labeled ALKBH5 K132A mutant (unknown origin) expressed in Escherichia coli BL21(DE3) using m6A-ssDNA as substrate assessed as dissociation constant incubated for 15 mins by MST assay
quantity measured: Kd (µM)
Form entry: value (µM) — number only.

The reported Kd of the molecule O=C(OCc1ccc(C(F)(F)F)cc1)c1ccc(-c2cc3ncc(C(=O)c4c(O)ccc([N+](=O)[O-])c4O)cn3n2)cc1 was 53

###

protocol: Metabolic stability in rat liver microsomes assessed as clearance measured upto 240 mins by LC-MS/MS analysis
Assay type: ADME, Microsome
condition description: read-out: CLH
quantity measured: microsomal CLint (µL/min/mg)
Form entry: value (µL/min/mg) — number only.

The reported microsomal CLint of the compound O=C(OCc1ccc(C(F)(F)F)cc1)c1ccc(-c2cc3ncc(C(=O)c4c(O)ccc([N+](=O)[O-])c4O)cn3n2)cc1 was 100

###

protocol: Metabolic stability in human plasma assessed as half life measured upto 240 mins by LC-MS/MS analysis
Type: ADME, cell-free
quantity measured: half-life
Give the value; after it, write the unit.

The reported half-life of the molecule O=C(OCc1ccc(C(F)(F)F)cc1)c1ccc(-c2cc3ncc(C(=O)c4c(O)ccc([N+](=O)[O-])c4O)cn3n2)cc1 was 10.4 h

###

protocol: Apparent volume of distribution during terminal phase in Sprague-Dawley rat at 10 mg/kg, po measured for 1 to 1440 mins by LC-MS/MS analysis
Type: ADME, organism-based
condition description: in vivo, time 1-1440 min, read-out: Vz/F
quantity measured: Vd/F (L/kg)
Form entry: value (L/kg) — number only.

The reported Vd/F of the compound O=C(OCc1ccc(C(F)(F)F)cc1)c1ccc(-c2cc3ncc(C(=O)c4c(O)ccc([N+](=O)[O-])c4O)cn3n2)cc1 was 6.18

###

measured target: RNA demethylase ALKBH5 (Homo sapiens, UniProt Q6P6C2)
protocol: Inhibition of ALKBH5 (66 to 292 residues)(unknown origin) expressed in Escherichia coli BL21(DE3) using 5'-ATTGTCA(m6A)CAGCAGA-FAM-3' as substrate incubated for 30 mins in presence of 200 uM of 2-OG by FP based competitive binding assay
quantity measured: IC50 (µM)
Form entry: value (µM) — number only.

The reported IC50 of the compound O=C(OCc1ccc(C(F)(F)F)cc1)c1ccc(-c2cc3ncc(C(=O)c4c(O)ccc([N+](=O)[O-])c4O)cn3n2)cc1 was 4.46

The reported IC50 of the compound O=C(O)c1ccnc(C(=O)NS(=O)(=O)c2ccccc2)c1 was 269

###

protocol: AUC (0 to infinity) in Sprague-Dawley rat at 2 mg/kg, iv measured for 1 to 1440 mins by LC-MS/MS analysis
Format: ADME, organism-based
condition description: in vivo
quantity measured: AUC(0-inf)
Give the value; after it, write the unit.

The reported AUC(0-inf) of the molecule O=C(OCc1ccc(C(F)(F)F)cc1)c1ccc(-c2cc3ncc(C(=O)c4c(O)ccc([N+](=O)[O-])c4O)cn3n2)cc1 was 6740 ng·h/mL

###

System: HUVEC
protocol: Antiproliferative activity against HUVEC cells assessed as inhibition of cell proliferation incubated for 72 hrs by Cell Titer Luminescence assay
Format: functional, cell-based
condition description: Homo sapiens
quantity measured: IC50 (µM)
Form entry: value (µM) — number only.

The reported IC50 of the compound O=C(OCc1ccc(C(F)(F)F)cc1)c1ccc(-c2cc3ncc(C(=O)c4c(O)ccc([N+](=O)[O-])c4O)cn3n2)cc1 was 165

###

measured target: RNA demethylase ALKBH5 (Homo sapiens, UniProt Q6P6C2)
protocol: Competitive binding affinity to ALKBH5 (66 to 292 residues)(unknown origin) expressed in Escherichia coli BL21(DE3) using 5'-ATTGTCA(m6A)CAGCAGA-FAM-3' as substrate assessed as dissociation constant incubated for 30 mins in presence of 2-OG by FP assay
pKd: −log10 of the molar value.
quantity measured: pKd

Result for O=C(OCc1ccc(C(F)(F)F)cc1)c1ccc(-c2cc3ncc(C(=O)c4c(O)ccc([N+](=O)[O-])c4O)cn3n2)cc1 , tested on RNA demethylase ALKBH5 (Homo sapiens, UniProt Q6P6C2), pKd: ~7.18

###

protocol: Half life in Sprague-Dawley rat at 2 mg/kg, iv measured for 1 to 1440 mins by LC-MS/MS analysis
Format: ADME, organism-based
condition description: in vivo, time 1-1440 min
quantity measured: half-life (min)
Form entry: value (min) — number only.

The reported half-life of the molecule O=C(OCc1ccc(C(F)(F)F)cc1)c1ccc(-c2cc3ncc(C(=O)c4c(O)ccc([N+](=O)[O-])c4O)cn3n2)cc1 was 36.7
